experiment: Biodistribution study with lead-212; assay type: in vivo, mouse; settings: mouse, pancreas, intravenous, 100 kBq, 24 h p.i.; n = 4; read-out: Pancreas uptake
Measured tissue uptake at 24 h by item
Write the number in %ID/g without appending the unit.

Compound | tissue uptake at 24 h [%ID/g]
C[C@@H](O)[C@H](NC(=O)[C@@H]1CSSC[C@H](NC(=O)[C@@H](Cc2ccccc2)NC(=O)CN2CCC(NC(=O)CN3CCN(CC(N)=O)CCN(CC(N)=O)CCN(CC(N)=O)CC3)CC2)C(=O)N[C@@H](Cc2ccc(O)cc2)C(=O)N[C@H](Cc2c[nH]c3ccccc23)C(=O)N[C@@H](CCCCN)C(=O)N[C@@H]([C@@H](C)O)C(=O)N1)C(=O)O [[^212Pb]Pb-eSOMA-02, metal not drawn] | 0.41

With those in mind, consider the next compound.
C[C@@H](O)[C@H](NC(=O)[C@@H]1CSSC[C@H](NC(=O)[C@@H](Cc2ccccc2)NC(=O)CN2CCN(CC(N)=O)CCN(CC(N)=O)CCN(CC(N)=O)CC2)C(=O)N[C@@H](Cc2ccc(O)cc2)C(=O)N[C@H](Cc2c[nH]c3ccccc23)C(=O)N[C@@H](CCCCN)C(=O)N[C@@H]([C@@H](C)O)C(=O)N1)C(=O)O [[^212Pb]Pb-DOTAM-TATE, metal not drawn, reference compound] yielded tissue uptake at 24 h of 0.28
